protocol: Compound stability in rat liver microsomes
Type: in vitro ADME
condition: liver microsomes, pH 7.4; in vivo CLint extrapolated from rat liver microsome incubation
# CLint scaled at 5 μM per entry
The reply should be a number in mL/min/kg, with the unit left off.

The following molecules have reported results that may help.
1) C#Cc1cccc2nc([C@H](C)Nc3ncnc(N)c3-c3nnn(C)n3)n(-c3ccccc3)c(=O)c12 [Example 48]    172
2) Cc1noc(-c2c(N)ncnc2N[C@@H](C)c2nc3cccc(C#CCO)c3c(=O)n2C2CC2)n1 [Example 30]    22.1
3) C#Cc1cccc2nc([C@H](C)Nc3ncnc(N)c3-c3noc(C)n3)n(-c3ccccc3)c(=O)c12 [Example 47]    140
4) Cc1noc(-c2c(N)ncnc2N[C@@H](C)c2nc3cccc(C#CC(C)(C)O)c3c(=O)n2-c2ccccc2)n1 [Example 1]    2.5

Given the molecule C[C@H](Nc1ncnc(N)c1-c1ncn(C)n1)c1nc2cccc(C#CCO)c2c(=O)n1-c1ccccc1 [Example 46] , what is its reported CLint scaled at 5 μM?
60.8

Given the molecule Cc1nnc(-c2c(N)ncnc2N[C@@H](C)c2nc3cccc(C#CC(C)O)c3c(=O)n2-c2ccccc2)o1 (stereo partly drawn) [Example 7] , what is its reported CLint scaled at 5 μM?
15.3

* * *

protocol: Compound stability in human liver microsomes
Assay type: in vitro ADME
condition: pH 7.4; human liver microsomes 0.5 mg protein/mL, compound 5 μM, NADPH, 37° C.; read-out: Human T1/2
experimentalEndpoint: half-life at 5 μM
Returns: string containing the number followed by the unit.

1) Cc1nc(-c2c(N)ncnc2N[C@@H](C)c2nc3cccc(C#CC(C)(C)O)c3c(=O)n2-c2ccccc2)no1    3.06 h

Given the molecule C[C@H](Nc1ncnc(N)c1-c1nnn(C)n1)c1nc2cccc(C#CCO)c2c(=O)n1-c1ccccc1 , what is its reported half-life at 5 μM?
1 h

Given the molecule CC#Cc1cccc2nc([C@H](CC)Nc3ncnc(N)c3-c3nnc(C)o3)n(C3CC3)c(=O)c12 , what is its reported half-life at 5 μM?
0.277 h

* * *

protocol: Pharmacokinetic profiles in rats
Format: in vivo, rat
condition: rat, plasma, iv dosing 1 mg/kg, read-out: Vss
// not fulfilled strictly below 1 L/kg in Vd; fulfilled otherwise

1. Cc1nc(-c2c(N)ncnc2N[C@@H](C)c2nc3cccc(C#CCO)c3c(=O)n2-c2ccccc2)no1    fulfilled
2. Cc1nnc(-c2c(N)ncnc2N[C@@H](C)c2nc3cccc(C#CC(C)O)c3c(=O)n2-c2ccccc2)o1 (some centres unmarked)    not fulfilled
3. C#Cc1cccc2nc([C@H](C)Nc3ncnc(N)c3-c3nnn(C)n3)n(C3CC3)c(=O)c12    fulfilled
4. CC#Cc1cccc2nc([C@H](C)Nc3ncnc(N)c3-c3nnc(C)o3)n(C3CC3)c(=O)c12    fulfilled

Turning now to a further record.
Quick check, Vd >= 1 L/kg? C[C@H](Nc1ncnc(N)c1-c1nnn(C)n1)c1nc2cccc(C#CC(C)(C)O)c2c(=O)n1-c1ccccc1
fulfilled

* * *

# pIC50 per entry
assaySystem: PI3K (p110δ/p85α) (h) (Homo sapiens (Human), UniProt O00329)
Sequence (O00329 whole entry): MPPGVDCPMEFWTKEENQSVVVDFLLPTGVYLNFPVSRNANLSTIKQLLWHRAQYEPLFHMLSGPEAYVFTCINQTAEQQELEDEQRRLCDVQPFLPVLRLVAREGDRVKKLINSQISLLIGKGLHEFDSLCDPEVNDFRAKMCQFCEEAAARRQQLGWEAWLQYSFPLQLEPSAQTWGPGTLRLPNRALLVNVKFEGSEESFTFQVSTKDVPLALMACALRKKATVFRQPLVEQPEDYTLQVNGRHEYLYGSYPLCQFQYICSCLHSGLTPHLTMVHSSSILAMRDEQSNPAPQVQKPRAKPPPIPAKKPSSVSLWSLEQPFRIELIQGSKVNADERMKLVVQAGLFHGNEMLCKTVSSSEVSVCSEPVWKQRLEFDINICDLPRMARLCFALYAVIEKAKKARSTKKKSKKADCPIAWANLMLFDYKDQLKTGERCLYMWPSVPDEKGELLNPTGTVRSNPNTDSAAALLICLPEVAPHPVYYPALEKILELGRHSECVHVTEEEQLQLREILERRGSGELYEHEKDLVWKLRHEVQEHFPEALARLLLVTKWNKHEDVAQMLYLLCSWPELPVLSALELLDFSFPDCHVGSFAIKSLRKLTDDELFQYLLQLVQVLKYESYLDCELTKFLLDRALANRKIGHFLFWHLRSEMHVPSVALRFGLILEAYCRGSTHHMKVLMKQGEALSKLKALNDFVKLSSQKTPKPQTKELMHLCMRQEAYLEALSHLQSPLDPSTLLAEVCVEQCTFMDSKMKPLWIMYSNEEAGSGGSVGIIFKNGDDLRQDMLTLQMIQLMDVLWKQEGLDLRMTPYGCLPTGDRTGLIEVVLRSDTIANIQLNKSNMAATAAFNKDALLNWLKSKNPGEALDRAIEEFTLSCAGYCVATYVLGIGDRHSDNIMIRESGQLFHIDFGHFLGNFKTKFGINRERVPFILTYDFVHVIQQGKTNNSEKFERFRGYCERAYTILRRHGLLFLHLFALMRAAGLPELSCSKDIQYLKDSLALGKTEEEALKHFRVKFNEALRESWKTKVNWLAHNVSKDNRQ
Sequence (P27986 whole entry partner): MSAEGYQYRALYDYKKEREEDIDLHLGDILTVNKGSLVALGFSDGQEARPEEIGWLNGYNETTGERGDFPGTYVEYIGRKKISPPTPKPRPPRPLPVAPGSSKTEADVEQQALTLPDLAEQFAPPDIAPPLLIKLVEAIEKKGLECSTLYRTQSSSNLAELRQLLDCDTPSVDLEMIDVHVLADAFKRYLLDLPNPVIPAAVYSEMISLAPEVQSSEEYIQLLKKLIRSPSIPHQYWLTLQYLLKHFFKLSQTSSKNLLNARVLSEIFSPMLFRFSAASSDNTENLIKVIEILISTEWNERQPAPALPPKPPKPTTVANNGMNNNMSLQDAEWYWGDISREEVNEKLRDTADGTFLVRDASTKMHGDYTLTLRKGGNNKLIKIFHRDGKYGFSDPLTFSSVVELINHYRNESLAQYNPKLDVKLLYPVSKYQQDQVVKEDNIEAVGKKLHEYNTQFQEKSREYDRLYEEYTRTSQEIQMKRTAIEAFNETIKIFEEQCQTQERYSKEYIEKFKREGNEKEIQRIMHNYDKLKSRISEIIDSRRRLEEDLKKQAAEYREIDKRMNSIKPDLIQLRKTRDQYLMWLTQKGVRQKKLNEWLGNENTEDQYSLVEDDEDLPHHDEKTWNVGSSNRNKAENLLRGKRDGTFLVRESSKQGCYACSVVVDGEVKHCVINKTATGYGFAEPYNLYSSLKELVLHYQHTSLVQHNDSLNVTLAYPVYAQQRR
protocol: PI3K (p110δ/p85α) (h) non-radioactive HTRF kinase assay
# pIC50: negative log10 of molar concentration; output just the value

The following molecules have reported results that may help.
1) CC[C@H](Nc1ncnc(N)c1-c1nc(C)no1)c1nc2cccc(C#CCO)c2c(=O)n1-c1ccccc1 [Example 36]    8.00
2) Cc1noc(-c2c(N)ncnc2N[C@@H](C)c2nc3ccc(F)c(C#CCO)c3c(=O)n2-c2ccccc2)n1 [Example 42]    7.77
3) CC#Cc1cccc2nc([C@H](C)Nc3ncnc(N)c3-c3nnc(C)o3)n(-c3ccccc3)c(=O)c12 [Example 10]    8.22

Now for another entry.
Observed pIC50 on PI3K (p110δ/p85α) (h) (Homo sapiens (Human), UniProt O00329) for CC#Cc1cccc2cc([C@H](C)Nc3ncnc(N)c3-c3nc(C)no3)n(-c3ccccc3)c(=O)c12 [Example 16] , please.
8.00

* * *

protocol: Compound stability in rat liver microsomes
Format: in vitro ADME
condition: liver microsomes, pH 7.4; in vivo CLint extrapolated from rat liver microsome incubation
Rule: measured CLint scaled at 5 μM below 90 mL/min/kg gets TRUE; anything equal to or greater than 90 mL/min/kg gets FALSE.

Reference set, count: 5
1. CC[C@H](Nc1ncnc(N)c1-c1nnc(C)o1)c1nc2cccc(C#CCO)c2c(=O)n1-c1ccccc1 [Example 37]    FALSE
2. C#Cc1cccc2nc([C@H](C)Nc3ncnc(N)c3-c3nc(C)no3)n(-c3ccccc3)c(=O)c12 [Example 44]    FALSE
3. C#Cc1cccc2nc([C@H](C)Nc3ncnc(N)c3-c3ncn(C)n3)n(-c3ccccc3)c(=O)c12 [Example 49]    FALSE
4. C[C@H](Nc1ncnc(N)c1-c1nnn(C)n1)c1nc2cccc(C#CCO)c2c(=O)n1-c1ccccc1 [Example 39]    TRUE
5. Cc1noc(-c2c(N)ncnc2N[C@@H](C)c2nc3cccc(C#CC(C)O)c3c(=O)n2-c2ccccc2)n1 (stereo partly drawn) [Example 5]    TRUE

# check: CLint scaled at 5 μM < 90 mL/min/kg for Cc1nc(-c2c(N)ncnc2N[C@@H](C)c2nc3cccc(C#CCO)c3c(=O)n2-c2ccccc2)no1 [Example 38]
TRUE

# check: CLint scaled at 5 μM < 90 mL/min/kg for CC(O)C#Cc1cccc2nc([C@H](C)Nc3ncnc(N)c3-c3nnn(C)n3)n(-c3ccccc3)c(=O)c12 (stereo partly drawn) [Example 8]
TRUE

# check: CLint scaled at 5 μM < 90 mL/min/kg for C#Cc1cccc2nc([C@H](C)Nc3ncnc(N)c3-c3nc(C)no3)n(C3CC3)c(=O)c12 [Example 43]
FALSE

# check: CLint scaled at 5 μM < 90 mL/min/kg for C#Cc1cccc2nc([C@H](C)Nc3ncnc(N)c3-c3nnn(C)n3)n(C3CC3)c(=O)c12 [Example 52]
TRUE

# check: CLint scaled at 5 μM < 90 mL/min/kg for C#Cc1cccc2nc([C@H](C)Nc3ncnc(N)c3-c3nnc(C)o3)n(-c3ccccc3)c(=O)c12 [Example 45]
TRUE

# check: CLint scaled at 5 μM < 90 mL/min/kg for Cc1nc(-c2c(N)ncnc2N[C@@H](C)c2nc3cccc(C#CC(C)O)c3c(=O)n2-c2ccccc2)no1 (stereo partly drawn) [Example 6]
TRUE

* * *

assaySystem: PI3K (p110δ/p85α) (h) (Homo sapiens (Human), UniProt O00329)
protocol: PI3K (p110δ/p85α) (h) non-radioactive HTRF kinase assay
experimentalEndpoint: IC50 (nM)
The reply should be a number in nM, with the unit left off.

The following compounds have reported results that may help.
1) Cc1noc(-c2c(N)ncnc2N[C@@H](C)c2nc3cccc(C#CC(C)O)c3c(=O)n2-c2ccccc2)n1 (stereo partly drawn) [Example 5]    17
2) CC#Cc1cccc2nc([C@H](CC)Nc3ncnc(N)c3-c3nc(C)no3)n(-c3ccccc3)c(=O)c12 [Example 14]    8

Now for another entry.
Given the compound Cc1noc(-c2c(N)ncnc2N[C@@H](C)c2cc3cccc(C#CCO)c3c(=O)n2C2CC2)n1 [Example 33] , what is its reported IC50?
11
